system: PPARg:RXRa DBDmut IVT, anti-RXR (DBD mutation: RXRa K156A/R161A, NR concentration 270 nM, RXRa partner concentration 90 nM); assay: PBM binding z-score (relative to random genomic background probes); higher = stronger binding; sequences stand for … in GC…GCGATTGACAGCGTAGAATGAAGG
PROPERTY: PBM binding z-score
# answer = number (no unit)

Incoming: Item under review: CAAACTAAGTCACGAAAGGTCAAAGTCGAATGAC . Reported PBM binding z-score?
Outgoing: 2.8

Incoming: Any idea what PBM binding z-score was measured for TCTTGTAGATCAGCAGGTTAAGGAAGCTGGCCAA ?
Outgoing: 1.63

Incoming: What does the data say about its PBM binding z-score? Entry: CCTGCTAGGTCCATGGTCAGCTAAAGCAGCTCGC
Outgoing: -0.414

Incoming: # query: PBM binding z-score of entry TTACCAAGGTGAAGGGTCGTTGATGCACGCCTTG
Outgoing: 1.59

Incoming: Query (sequence): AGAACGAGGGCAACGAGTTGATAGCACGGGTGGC ; field requested: PBM binding z-score
Outgoing: 3.47

Incoming: For ATCGCAAGGTCGTGAGGTGAGTATACAGAAAGGC , what is its reported PBM binding z-score?
Outgoing: -0.158

Incoming: Requested read-out: PBM binding z-score. Entry: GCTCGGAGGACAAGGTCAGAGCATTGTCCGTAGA
Outgoing: -0.234

Incoming: I'd like to know its PBM binding z-score. The sequence in question is ATATGTAGGTTACATCCCGGTCATTCAGGCTATG
Outgoing: 7.52

Incoming: Recorded PBM binding z-score of CGTCAAAGTTCAACTAAGGTAACGAAAAGCACGC , please.
Outgoing: 0.421

Incoming: Item under review: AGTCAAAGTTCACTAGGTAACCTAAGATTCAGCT . Reported PBM binding z-score?
Outgoing: 3.06

Incoming: Entry AGTCAAAGTTCATGACGAGGTAACGTAAAGCACG has what PBM binding z-score?
Outgoing: 0.137

Incoming: Need PBM binding z-score, item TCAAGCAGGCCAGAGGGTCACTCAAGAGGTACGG
Outgoing: 1.38

====

tested on: PPARg DBDmut:RXRa IVT, anti-PPARg (DBD mutation: PPARg1 K132A/R137A, NR concentration 270 nM, RXRa partner concentration 90 nM); test: PBM binding z-score (relative to random genomic background probes); higher = stronger binding; sequences stand for … in GC…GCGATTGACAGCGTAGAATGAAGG
Our labelling divides records by PBM binding z-score into ranges: lower bin (below -0.5), middle bin (-0.5 to below 1), upper bin (1 or more)

Incoming: State the class of the sequence shown: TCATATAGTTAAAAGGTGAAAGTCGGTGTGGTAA
Outgoing: upper bin

Incoming: State the band of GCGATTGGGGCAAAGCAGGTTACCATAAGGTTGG
Outgoing: middle bin

Incoming: Kindly state the category for this sequence: CAAACTAGGTCACCGGAAGTTCAAAGTCCGCATG
Outgoing: upper bin

Incoming: // return the class label for CCTAGCAGGCCAATCTGGTTCACTCAAGGCTTGA
Outgoing: lower bin

Incoming: // return the class label for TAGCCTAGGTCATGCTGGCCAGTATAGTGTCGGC
Outgoing: middle bin

Incoming: Field: class (PBM binding z-score) — entry: CGTCCAAGATCAATGCTAGGTCAGTGAAAGCATT
Outgoing: middle bin

Incoming: Form field 'band' for ACTAGCAGGTCAAGTTTGGGTCACTCAAACAAAG
Outgoing: middle bin

Incoming: Input CATCGGAGGACAGAAGGTCAGAGCTGTCCGCTTT ; output its category
Outgoing: middle bin

Incoming: Input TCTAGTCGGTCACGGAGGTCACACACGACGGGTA ; output its category
Outgoing: upper bin

Incoming: Entry GGTACGAGGGCAAGTTGATAGCAGAGTTTGATGG belongs to which category?
Outgoing: lower bin

Incoming: Hey, which category is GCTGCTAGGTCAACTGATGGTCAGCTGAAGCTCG in, do you know?
Outgoing: lower bin

Data provenance is the supplement of paper PMC6555819.
